For each entry below, report its GI50 value.
System: Hs-578T
protocol-text: NCI tumour cell line growth inhibition, 48 h
Active and inactive are the calls of the source. Rule as the data show it: active = GI50 up to about 1.1 µM and inactive = higher.

Study these solved cases before continuing.
compound="N#CC1C(=O)NC(=O)C(C#N)C1c1ccc(Cl)c(Cl)c1 (stereo unspecified)" assayed_target=Hs-578T quantity_measured=GI50 recorded_result="23.1 µM (inactive)"
compound="O=C(O)c1ccccc1CC1Cc2ccc3c(c2C1=O)CCC3 (stereo unspecified)" assayed_target=Hs-578T quantity_measured=GI50 recorded_result="> 100 µM (inactive)"
compound="CC(=O)c1c2c(cc3c1CC1(Cc4cc5c(cc4C1=O)CCC5)C3)CCC2 (stereo unspecified)" assayed_target=Hs-578T quantity_measured=GI50 recorded_result="> 100 µM (inactive)"
compound="C=CCN1C(N)=C(C#N)C(C#N)(C#N)C1CCC (stereo unspecified)" assayed_target=Hs-578T quantity_measured=GI50 recorded_result="> 100 µM (inactive)"

# batch size: 2; output GI50 per entry
1. Nc1ccn(C2CC3OCC3O2)c(=O)n1 (stereo unspecified)
2. CN(N)c1cc(=O)[nH]c(=O)[nH]1

Result ::
1: > 100 µM (inactive); 2: 51.2 µM (inactive)

###

Test system: Malme-3M
protocol-text: NCI tumour cell line growth inhibition, 48 h
The source made the active and inactive calls. Rule as the data show it: active = GI50 up to about 1.1 µM and inactive = higher.
quantity-measured: GI50

Example entries begin here.
compound="FC(F)(F)c1ccc2c(c1)nc(Cc1ccc(Cl)c(Cl)c1)n2CC1CCCN2CCCCC12 (stereo not given)" recorded_result="13.6 µM (inactive)"
compound=CCOC(=O)/C=C(\C(=O)OCC)n1ccc(=O)n(Cc2cnnn2CCCCOC(C)=O)c1=O recorded_result="2.06 µM (inactive)"
compound=CCN(CC)CCNC(=O)c1cc2cc(NC(=O)c3cc4cc(NC(=O)c5cc6cc(N)ccc6[nH]5)ccc4[nH]3)ccc2[nH]1 recorded_result="> 100 µM (inactive)"
compound="CN1c2ccccc2N(C(=O)c2ccc([N+](=O)[O-])cc2)C(CC(=O)O)c2cccn21 (stereo not given)" recorded_result="> 100 µM (inactive)"
compound="O=C(c1ccccc1)C1N=NN(Cc2ccccc2[N+](=O)[O-])C1C(=O)c1ccccc1 (stereo not given)" recorded_result="> 100 µM (inactive)"

For every item in the list below, what is its measured GI50?
1. O=C(NNC(=O)c1ccccc1O)c1ccc(O)cc1
2. COc1cc(OC)nc(-n2c(N)c(C(=O)O)c3ccc([N+](=O)[O-])cc3c2=O)n1
3. COC(=O)CCc1cccnc1/C=N/O
4. N#C/C(=C\c1cc(Br)c(O)c(Br)c1)c1ccccn1
5. O=C(NNc1ccc([N+](=O)[O-])cc1)C1OC(CO)C(O)C1O (stereo not given)

Result ::
["14.5 µM (inactive)", "> 100 µM (inactive)", "> 100 µM (inactive)", "23.6 µM (inactive)", "> 100 µM (inactive)"]

###

System: HOP-62
protocol-text: NCI tumour cell line growth inhibition, 48 h
Active and inactive are the calls of the source. Cut-off read from the data, not from the text of the source: active = GI50 up to about 1.1 µM and inactive = higher.
quantity-measured: GI50

Could I get GI50 for every one of these entries?
1. Cc1cccc2nc3c(=O)[nH]c(=O)nc-3n(C)c12
2. COc1ccc(CC2(O)C3CC4CCC2C4C3)cc1 (stereo not given)
3. C/C(=N\NC(=O)c1ccncc1)c1sc(-n2nc(-c3ccccc3)cc2-c2ccccc2)nc1C
4. O=[N+]([O-])c1cccc(/N=N/c2c(O)c(S(=O)(=O)O)cc3cc(S(=O)(=O)O)ccc23)c1
5. CC(C)=CC1CCc2ccccc2N1S(=O)(=O)c1ccc(C)cc1 (stereo not given)

Result ::
["79.6 µM (inactive)", "> 100 µM (inactive)", "> 31.6 µM (inactive)", "> 100 µM (inactive)", "2.57 µM (inactive)"]

###

Please respond with reported GI50 for every item in the list.
Test system: RXF 393
protocol-text: NCI tumour cell line growth inhibition, 48 h
Active and inactive are the calls of the source. Rule as the data show it: active = GI50 up to about 1.1 µM and inactive = higher.

Go through the list and state GI50 for each entry.
1. c1ccc(-c2c(-c3[nH]c4ccccc4c3-c3ccccc3)[nH]c3ccccc23)cc1
2. C[C@]12CCC(=O)C=C1CC[C@@H]1[C@@H]2[C@@H](O)C[C@@]2(C)[C@H]1CC[C@]2(O)C(=O)COC(=O)C1CCCC1
3. CCOP(=O)(CC1OC(CO)C(O)C1O)OCC (centres undefined)
4. CCOC(=O)c1sc2c(c1OC(=O)c1ccc(OC)cc1)c(=O)n(-c1ccccc1)c(=S)n2-c1ccccc1

Result ::
1.82 µM (inactive)
> 100 µM (inactive)
> 100 µM (inactive)
> 100 µM (inactive)

###

Test system: 786-0
protocol-text: NCI tumour cell line growth inhibition, 48 h
Activity calls are given as the source filed them. Cut-off read from the data, not from the text of the source: active = GI50 up to about 1.1 µM and inactive = higher.
Hi! Could you answer with just one of these? 1 (yes) (active), 0 (no) (inactive)

compound="CC(C)=CC1CCc2ccccc2N1S(=O)(=O)c1ccc(C)cc1 (stereo unspecified)" label="0 (no)"

Query :: Which outcome did this test record for the compound COc1ccc(Oc2ccc3cc4c(cc3c2O)OCO4)c2cc(C)oc12 ?
Result :: 0 (no)

Query :: How about Cc1cn2c(/C=N/NC(=N)N)c(-c3ccc(Cl)c([N+](=O)[O-])c3)nc2s1 ?
Result :: 1 (yes)

Query :: Input CS(=O)(=O)N/N=C/CN1C(=O)c2ccccc2C1=O
Result :: 0 (no)

Query :: Another compound to check: O=C1OC(=O)c2c1cc1cc3c(cc1c2-c1ccc2c(c1)OCO2)OCO3
Result :: 0 (no)

Query :: Would you mind doing CC1(C)C(=O)C=CC2(C)C1CC(O)C1(C)C2CCC2(C)C(c3ccoc3)OC(=O)C3OC321 (stereo unspecified) as well?
Result :: 0 (no)

###

System: CAKI-1
protocol-text: NCI tumour cell line growth inhibition, 48 h
Activity calls are given as the source filed them. Cut-off read from the data, not from the text of the source: active = GI50 up to about 1.1 µM and inactive = higher.
quantity-measured: GI50

Answered examples (3):
molecule=C\C=C/C=C/C=C/C(=O)O assayed_target=CAKI-1 quantity_measured=GI50 recorded_result="> 100 µM (inactive)"
molecule=N#CC1=C(Cl)NC(Cl)=C(C#N)C1c1ccc(Cl)cc1 assayed_target=CAKI-1 quantity_measured=GI50 recorded_result="17.9 µM (inactive)"
molecule=CNC(=S)NNc1ncnc2c1ncn2-c1ccc(C)cc1 assayed_target=CAKI-1 quantity_measured=GI50 recorded_result="> 100 µM (inactive)"

Value sought for every listed molecule: GI50.
1. O=C1NC(=O)C(c2c[nH]c3ccccc23)=C1c1cnc[nH]1
2. CC(C)N(C(=O)C12C3C4C1C1C2C3C41I)C(C)C (configuration not stated)
3. COc1ccc(Nc2nc3ccccc3nc2C(=O)O)cc1
4. Cc1ncc2c(n1)CCC1=C2OS(=O)(=O)CC1N(C)C (configuration not stated)
5. CC1(C)C(=O)C=CC2(C)C1CC(O)C1(C)C2CCC2(C)C(c3ccoc3)OC(=O)C3OC321 (configuration not stated)

Result ::
1: > 100 µM (inactive); 2: > 100 µM (inactive); 3: 46.6 µM (inactive); 4: 69.5 µM (inactive); 5: 11.7 µM (inactive)

###

Tested on: UACC-257
protocol-text: NCI tumour cell line growth inhibition, 48 h
Active and inactive are the calls of the source. Rule as the data show it: active = GI50 up to about 1.1 µM and inactive = higher.
Choose the fitting class; nothing outside label 1 = active, label 0 = inactive is accepted.

compound=CCOC(=O)C(=[N+]=[N-])C(=O)C[N+]12CCN(CC1)CC2 label="label 0"
compound=CC1=NN(C(=O)c2ccccc2O)C(=O)/C1=C/c1ccc(O)cc1 label="label 1"
compound=COC(=O)C1=C(C(=O)OC)SC2(S1)C(C(=O)OC)=C(C(=O)OC)Sc1c2ss/c1=N/C(C)(C)C label="label 0"
compound=O=C(O)c1ccccc1NCn1c(=S)sc2ccccc21 label="label 0"
compound=CO[C@H]1c2cccc3cccc(c23)[C@@H]1n1[nH]c(=O)n(C(C)(C)C)c1=O label="label 0"

Now for a further compound.
Query :: Could you please tell me the result logged for O=C1/C(=C/c2ccc(Cl)cc2)N=C(c2ccccc2)N1c1nc2ccc(Sc3ccccc3)cc2[nH]1 in this assay?
Result :: label 0

###

Tested on: ACHN
protocol-text: NCI tumour cell line growth inhibition, 48 h
The source made the active and inactive calls. Rule as the data show it: active = GI50 up to about 1.1 µM and inactive = higher.
Answer with one of the outcomes given here: t = active, f = inactive

Solved cases (6 shown):
molecule=O=C(Nc1ccccc1)O/N=C1/CCCC/C1=C\c1ccccc1 assayed_target=ACHN label=f
molecule=CCOC(=O)c1[nH]c2ccccc2c1C(=O)C[C@H](NC(=O)C(F)(F)F)C(=O)OC assayed_target=ACHN label=f
molecule=COc1ccccc1C[C@@H]1OC2(C=CC(=O)C=C2)O[C@H]1Cc1ccccc1OC assayed_target=ACHN label=f
molecule="COC(=O)Nc1nc2cc(S(=O)(=O)NC(CC(C)C)C(=O)OC)ccc2[nH]1 (configuration not stated)" assayed_target=ACHN label=f
molecule=O=C1NC(=O)C(c2c[nH]c3ccccc23)=C1c1cnc[nH]1 assayed_target=ACHN label=f
molecule="CC1CCC2C(C(=O)O[C@H]3C4CCO[C@@H](OC5OC(CO)C(O)C(O)C5O)C4[C@@]4(CO)O[C@@H]34)=CO[C@@H](OC3OC(CO)C(O)C(O)C3O)C12 (some centres not stated)" assayed_target=ACHN label=f

Query :: Each molecule tested received a call. Report the one for Cn1nc(-c2ccccc2)c(C(=O)/C=C/c2ccc(Cl)cc2)c(N2CCCCC2)c1=O .
Result :: f

Query :: Query O=C1/C(=C/c2ccc(Cl)cc2)Oc2cc(O)ccc21 [6-HYDROXY-4'-CHLORO AURONE] next
Result :: f

Query :: Now give it for CC1(C)C(=O)C=CC2(C)C1CC(O)C1(C)C2CCC2(C)C(c3ccoc3)OC(=O)C3OC321 (configuration not stated) too.
Result :: f

Query :: Follow-up entry: O=[N+]([O-])c1ccc(-n2nnc(C3=NCCN3)c2-c2ccccc2)cc1
Result :: f

Query :: Lookup O=C(c1ccccc1)C1N=NN(Cc2ccccc2[N+](=O)[O-])C1C(=O)c1ccccc1 (configuration not stated)
Result :: f

Query :: Also check O=C1O/C(=C\c2ccc(O)cc2)C(c2ccc(O)c(Cl)c2)=C1Br
Result :: f

Query :: And for COc1ccc(CC2C(=O)NC(C)C(=O)N(C)C3C(=O)N(C)C(Cc4ccc(O)c(c4)Oc4ccc(cc4)C3O)C(=O)NC(C)C(=O)NC(C)C(=O)N2C)cc1.COc1ccc(CC2C(=O)NC(C)C(=O)N(C)C3Cc4ccc(cc4)Oc4cc(ccc4O)CC(C(=O)NC(C)C(=O)NC(C)C(=O)N2C)N(C)C3=O)cc1 (configuration not stated) ?
Result :: t

Query :: // query: CC(=O)c1c2c(cc3c1CC1(Cc4cc5c(cc4C1=O)CCC5)C3)CCC2 (configuration not stated)
Result :: f

Query :: Now give it for O=c1oc2c(ccc3c(O)cccc32)c2c1CCCC2 too.
Result :: f

Query :: Can you check CS(=O)(=O)N/N=C/CN1C(=O)c2ccccc2C1=O next?
Result :: f

Query :: Same thing, different molecule: O=C1C2C(C(=O)N1c1ccccc1)C1([N+](=O)[O-])C=C3c4ccccc4N(C(=O)c4ccccc4)C32C2C(=O)N(c3ccccc3)C(=O)C21 (configuration not stated)
Result :: f
